Origin of measurements: patent US20250154277A1

- Target Of Assay: T1, human 5T4-His protein (human, UniProt Q13641 32-355)
- T1 construct: also called recombinant 5T4 protein (human 5T4-his tag); human 5T4 protein; not shown: His tag
- T1 sequence (looked up): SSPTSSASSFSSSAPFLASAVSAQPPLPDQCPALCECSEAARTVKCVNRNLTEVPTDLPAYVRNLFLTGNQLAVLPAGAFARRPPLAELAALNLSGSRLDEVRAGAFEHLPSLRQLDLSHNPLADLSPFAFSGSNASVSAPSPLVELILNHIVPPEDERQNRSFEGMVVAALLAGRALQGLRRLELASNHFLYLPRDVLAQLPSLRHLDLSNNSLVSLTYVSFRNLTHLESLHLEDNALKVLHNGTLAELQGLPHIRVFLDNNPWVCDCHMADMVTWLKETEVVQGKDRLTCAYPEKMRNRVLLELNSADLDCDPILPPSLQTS
- Assay Details: SPR Biacore, Protein A capture
Use Satisfied when the recorded kon is no lower than 200000 M⁻¹ s⁻¹; use Not satisfied when it is lower.

Q: Entry 49C5 chimeric antibody (antibody, V domains shown, chimeric mAb) VH: EVQLQQSGPELVKPGASVKISCKASGYTFTDYYMNWVKQSHGKSLEWIGDINPYSGGATNNQKFKGKATLTVDKSSSTAYIELRSLTSEDSAVYFCARGSIYYDSTANYFDYWGQGTTLTVSS VL: DIQMTQSPASLSASVGETVTITCRASENIYSYLAWYQQKQGKSPQLLVYNAKSLTEGVPSRFSGSRSGTQFSLKINSLQPEDFGSYYCQHHYVTPWTFGGGTKLEIK : is its kon no less than 200000 M⁻¹ s⁻¹?
Ans: Satisfied

Q: Another binder: 267B5 chimeric antibody (antibody, V domains shown, chimeric mAb) VH: DVQFQESGPGLVKPSQSLSLTCSVTGYSITSSYYWNWIRQFPGDKLEWMGYISYDGSNNYNPSLKNRISITRDTSKKQFFLKLNSVTTEDTATYYCARSWDGGYAMDNWGQGTSVTVSS VL: SIVMTQTPKFLLVSAGDRVTITCKASQSVSNDVAWYQQKPGQSPKLLIYFASNRYTGVPDRFTGSGYGTVFTFTISTVQADDLAVYFCQQDYTSPWTFGGGTRLEIK
Ans: Not satisfied

Q: Can you handle 367B8 chimeric antibody (antibody, V domains shown, chimeric mAb) VH: QVQLQQPGTELVKPGASVKLSCKASGYTFTSYWMHWVKQRPEQGLEWIGNINPSNGNTNYNENFKSQATLTVDKSSSTAYMQLSSLTSEDSAVYYCARGGWDFDYWGQGTTLTVSS VL: QVVLTQSPAIMSASPGEKVTMTCSASSSVRYIHWYQQRSGTSPKRWIYDTSKLTSGVPVRFSGSGSGTSYSLTISSMEAEDAATYYCQQWTSKPPWTFGGGTKLEIR next?
Ans: Satisfied

Q: Again, but for 257F1 chimeric antibody (antibody, V domains shown, chimeric mAb) VH: QVLLQQSGAEVARPGASVKLSCKASGYTFTSYGLNWLRQRTGQGLEWIGEIYPRSENTHYNEKFKGKATLTADKSSSTAYMELRSLTSEDSAVYFCARGDWDFDHWGQGTTLTVSS VL: EILLTQSPAIIPASPGEKVTITCSASSSVSYMNWYQQKPGSSPKIWIYGISNLASGVPARFSGSGSGTFFSFTINSMEAEDVATYYCQQRSSYPRTFGGGTKLEIK
Ans: Not satisfied

Q: Repeat for the following binder: 425G1 chimeric antibody (antibody, V domains shown, chimeric mAb) VH: EVQLQQSGAELVKPGASVKLSCTASGFNIKDTYMHWVKQRPEQGLEWIGRIDPANGHTIFASKFQGKATITADTSSNTAYMQLSSLTSGDTAVYYCGLFTMVVVPWYFDVWGTGTTVTVSS VL: DIVMTQSHKFMSTSVGDRVSITCKASQDVSTAVAWYQQKPGQSPKLLIYWASTRHTGVPDRFTGSGSGTDYTLTISSVQAEDLALYYCQQHYSSPLTFGAGTKLELK
Ans: Not satisfied
